Data origin, for the record: the supplement of paper PMC10567573

B1: EIF5 (parent)
chain: KQTIGNSCKACGYRGMLDTHHKLC

# Variants of: B1
# testMethodNotes: protein stability index of a GFP-peptide fusion (GPS, HEK-293T) (PSI 1-6); higher = more stable;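 also: lentivirally expressed fusions sorted by FACS into six bins by GFP to DsRed ratio, PSI derived from sequencing read proportions per bin multiplied by bin number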
# conditionContext: c terminus: a fixed tail appended
Please mark 1 if the recorded protein stability index is equal to or greater than 3, and 0 if it falls below.

| variantLabel | answerLabel |
| --- | --- |
| T19G | 1 |
| Y13A | 1 |
| K9R | 0 |
| M16S | 1 |
| K9G | 0 |
| Y13P | 0 |
| S7R | 1 |
| L17W | 0 |
| L23T | 1 |
| T3G | 1 |
| C11Q | 0 |
| T19E | 1 |
| G12Y | 0 |
| C24T | 0 |
| S7H | 1 |
| A10G | 0 |
| M16T | 1 |
| H21I | 0 |
| L23Y | 1 |
| Y13S | 1 |
| S7L | 1 |
| K1F | 0 |
